Biological target: GABA-A receptor; alpha-1/beta-3/gamma-2 (Homo sapiens) (UniProt P14867+P18507+P28472)
Assay: Effect on [3H]muscimol binding to full length human N-terminal flag-tagged alpha1-beta3-C-terminal 1D4-tagged gamma2 GABAA receptor extracted from Tetracycline-resistant HEK293 cell membrane assessed as fold change in [3H]muscimol binding at 300 uM incubated for 30 mins
Format: cell membranes
Conditions: filed as modulator
# binarize fold change (FC): threshold 0.07 inclusive, high side Y, low side N

Task item: Entry COc1ccc2c(c1)C1(CC2)C(=O)NC(=S)NC1=O : is its fold change (FC) no less than 0.07?
Reply: Y

Task item: Item Cc1ccc2c(c1)C1(CC2)C(=O)NC(=N)NC1=O (configuration not stated) with fold change (FC) of 0.07 or above?
Reply: N

Task item: Assess whether reported fold change (FC) for CC(C)c1ccc2c(c1)C1(CC2)C(=O)NC(=O)NC1=O sits at 0.07 or higher.
Reply: Y

Task item: Dear colleague, could you confirm whether Cc1ccc2c(c1)C1(CC2)C(=O)NC(=O)NC1=O has fold change (FC) at or above 0.07?
Reply: N

Task item: Exam item: decide whether the reported fold change (FC) for COc1ccc2c(c1)C1(CC2)C(=O)NC(=O)N(C)C1=O (stereo in doubt; 7h-2) is at least 0.07.
Reply: Y

Task item: Please tell me: is the compound CC1Cc2ccccc2C12C(=O)NC(=O)NC2=O (stereo in doubt; 10g-1) at or over 0.07 in terms of fold change (FC)?
Reply: N

Task item: Can CC(C)c1ccc2c(c1)C1(CC2)C(=O)NC(=O)N(C)C1=O (stereo in doubt; 5h-1) be said to have fold change (FC) at or above 0.07?
Reply: Y

Task item: Does fold change (FC) meet or surpass 0.07 for O=C1NC(=O)C2(CC(O)c3ccccc32)C(=O)N1 (stereo in doubt; 1t-1) ?
Reply: N

Task item: Test whether the compound NC1CC2(C(=O)NC(=O)NC2=O)c2ccccc21 (racemic) records fold change (FC) of 0.07 or higher.
Reply: Y

Task item: Evaluate Cc1ccc2c(c1)C1(CC2)C(=O)NC(=S)NC1=O : fold change (FC) at minimum 0.07?
Reply: N
